test system: CCRIS mutagenicity, Ames/micronucleus/aberration tests; experiment: CCRIS mutagenicity studies; conditions: Test System: CHINESE HAMSTER V-79; Strain/Indicator: V-79 (HPRT)/6-THIOGUANINE; Metabolic Activation: NONE
The source made the active and inactive calls. How the calls were made is not given here.
# valid calls are active, inactive; nothing else

// known answers, use as guide
[
  {
    "MOLECULE": "CC(=O)CC1CCC(=O)/C=C\\C(=O)OC(CC(C)=O)CCC(=O)/C=C\\C(=O)O1 (centres undefined)",
    "QUALITATIVE LABEL": "active"
  },
  {
    "MOLECULE": "CCOC(=O)C1=C(C)NC(C)=C(C(=O)OCC2COC3(CCCC3)O2)C1c1cccc(Cl)c1 (centres undefined)",
    "QUALITATIVE LABEL": "inactive"
  },
  {
    "MOLECULE": "COCC=O",
    "QUALITATIVE LABEL": "active"
  }
]

Ask | Tell me the assay call for CC[C@@]1(O)C(=O)OCc2c1cc1n(c2=O)Cc2cc3c(CN(C)C)c(O)ccc3nc2-1 please.
Reply | active

Data credit: PubChem BioAssay AID1259407
